Data provenance: PubChem BioAssay

// reported z-score for each item listed
- METHOD: galactose survival enhancers in mitochondrial complex I cybrids – cell-based, galactose medium, ATP luminescence, primary screen (AID 1645843);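 also: positive z means more ATP and so rescue of galactose-driven cybrid death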
- RECORDED_CONDITIONS: complex I mutant cybrid cells, 72 h, stronger effect = higher value
Keep it simple and answer with nothing but the number.

# count of solved cases: 2
{"columns": ["MOLECULE", "QUANTITY_NAME", "QUANTITATIVE_READOUT"],
 "data": [
  ["Cc1nnc(CN(C)C(=O)c2cc(-c3ccc(C)s3)cc(S(=O)(=O)N3CCOCC3)c2)o1", "z-score", 0.29],
  ["COc1ccc(CCNCC(O)COc2cccc(C)c2)cc1OC (stereo not drawn)", "z-score", -0.99]
]}

Next molecule, z-score to be filled in.
Query: Form field: reported z-score of COc1ccc(-c2oc3ncnc(NCCO)c3c2-c2ccc(OC)cc2)cc1
Result: -1.77

* * *

- METHOD: MELAS cybrid and Rieske KO viability enhancers – cell-based, MELAS cybrids, Rieske KO mouse fibroblasts, CellTiter-Glo, primary screen (AID 1508586);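 also: z relative to plate mean and SD of compound and empty wells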
- RECORDED_CONDITIONS: Rieske KO mouse fibroblast survival, low glucose, CellTiter-Glo 72 h
For each record, check the reported z-score: if it is below -0.3 write met, else write not met.

{"columns": ["MOLECULE", "ASSIGNED_CATEGORY"],
 "data": [
  ["O=CC(O)C(O)C(O)C(O)CO (centres undefined)", "not met"],
  ["Cn1c(=O)c2c(nc(N3CCNCC3)n2Cc2ccccc2)n(C)c1=O", "met"],
  ["CCn1ncc(NC(=O)Cn2cc(-c3ncnc4ccsc34)cn2)n1", "not met"],
  ["COC1O[C@H]2O[C@@]3(C)CC[C@H]4[C@@H](C)CC[C@@H]([C@H]1C)[C@@]24OO3 (some centres undefined)", "not met"],
  ["CCC1=CC2CN(C1)Cc1c([nH]c3ccccc13)[C@@](C(=O)OC)(c1cc3c(cc1OC)N(C)[C@@H]1[C@@]34CCN3CC=C[C@@](CC)(C(OC(C)=O)[C@]1(O)C(=O)OC)[C@@H]34)C2 (some centres undefined)", "met"]
]}

Query: In the record for NC(=O)NN=Cc1ccc([N+](=O)[O-])o1 , is z-score less than -0.3?
Result: met

Query: In the record for O=S(=O)(O)CCCN1CCOCC1 , is z-score less than -0.3?
Result: met

Query: In the record for OC(CCN1CCCCC1)(c1ccccc1)C1C[C@@H]2C=C[C@H]1C2 (some centres undefined) , is z-score less than -0.3?
Result: not met

Query: In the record for COC(=O)CN1CCN(C(=O)Nc2n[nH]c(-c3ccco3)n2)CC1=O , is z-score less than -0.3?
Result: not met

* * *

// reported fold change for each item listed
- METHOD: viability loss with induced miR-34 in A549 – imaging, A549 dox-inducible miR-34, nuclei and caspase counts, primary screen (AID 1347080)
- RECORDED_CONDITIONS: A549 miR-34 inducible, Hoechst nuclei count, 48 h; stronger effect = lower value; cell number ratio, induced over uninduced
Keep it simple and answer with nothing but the number.

# count of solved cases: 5
{"columns": ["MOLECULE", "fold change"],
 "data": [
  ["CC(C)n1cc(-c2cc(C(=O)N(C)Cc3ccncc3)c3ccc(F)cc3n2)cn1", 0.897],
  ["Cc1ccc2c(-c3ncnc4scc(C)c34)cccc2n1", 0.882],
  ["NC(N)=NCC(=O)O", 0.926],
  ["O=C(O)CCCCC1SC[C@@H]2NC(=O)N[C@H]12 (some centres undefined)", 0.883],
  ["CN(C)C(=O)c1ccc(S(=O)(=O)c2ccc(NC(=O)C(C)(O)C(F)(F)F)c(Cl)c2)cc1 (centres undefined)", 0.887]
]}

Query: Form field: reported fold change of CCCCC[C@H](O)/C=C/C=C\C=C\C=C\[C@@H](O)[C@@H](O)CCCC(=O)O
Result: 0.912

Query: Form field: reported fold change of CN=C(NC)NCc1ccccc1
Result: 0.917

Query: Form field: reported fold change of COc1cc(F)c(C(C)C)cc1-c1ccc(C(F)(F)F)cc1CN1C(=O)OC(c2cc(C(F)(F)F)cc(C(F)(F)F)c2)C1C (centres undefined)
Result: 0.899

* * *

- METHOD: MELAS cybrid and Rieske KO viability enhancers – cell-based, MELAS cybrids, Rieske KO mouse fibroblasts, CellTiter-Glo, primary screen (AID 1508586);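 also: z relative to plate mean and SD of compound and empty wells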
- RECORDED_CONDITIONS: MELAS cybrid survival, low glucose, CellTiter-Glo 48 h; stronger effect = higher value
The threshold is inclusive: z-score of exactly -0.03 counts as met; values below receive not met.

# example entries with known answers
{"columns": ["COMPOUND", "ASSIGNED_CATEGORY"],
 "data": [
  ["COc1ccc(-c2ccc3c(N4CCOCC4C)nc(N4CCOCC4C)nc3n2)cc1CO (stereo not given)", "met"],
  ["C[C@H](C(=O)O)c1cccc(C(=O)c2ccccc2)c1", "not met"],
  ["Cc1nc2ccc(-c3ncnc4sccc34)cc2c(=O)[nH]1", "met"],
  ["COc1nc2ccccc2cc1-c1nnc2ccccn12", "not met"],
  ["CC(C)C1=NOC(c2nc(-c3cccc4ccccc34)no2)C1 (stereo not given)", "met"]
]}

Query: Decide: z-score of CC(C)OC(=O)C(C)N[P@](=O)(OCC1OC(n2ccc(=O)[nH]c2=O)[C@](C)(F)C1O)Oc1ccccc1 (stereo not given in full) >= -0.03?
Result: not met

Query: Decide: z-score of CCN(CC)S(=O)(=O)c1cc(C(=O)Nc2ccccc2C(=O)O)ccc1Br >= -0.03?
Result: not met

Query: Decide: z-score of C[C@@]1(c2nc3c(C(N)=O)cccc3[nH]2)CCCN1 >= -0.03?
Result: not met

* * *

// reported period change for each item listed
- METHOD: compounds altering circadian rhythm period length – cell-based, LOPAC library, luminescence reporter (AID 2774);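 also: values are relative to mean of DMSO wells on each plate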
- RECORDED_CONDITIONS: circadian reporter cells, at 7 µM, actives lie on both sides
Active and inactive are the calls of the source. The rule behind the calls is not given here.

Query: Form field: reported period change of OC[C@H]1O[C@@H](n2cnc3c(NC4CCCC4)ncnc32)C(O)[C@H]1O (stereo partly specified)
Result: -0.095 h (inactive)

Query: Form field: reported period change of CSc1nc(N)c2ncn([C@@H]3O[C@H](COP(=O)(O)OP(=O)(O)OP(=O)(O)O)[C@H](O)C3O)c2n1 (stereo partly specified)
Result: -0.07 h (inactive)

Query: Form field: reported period change of COc1cccc(C(=O)NCCN2CCN(c3ccc(Cl)cc3)CC2)c1
Result: -0.035 h (inactive)

Query: Form field: reported period change of CNCC[C@@H](Oc1ccc(C(F)(F)F)cc1)c1ccccc1
Result: 0.13 h (inactive)

Query: Form field: reported period change of N=C(N)c1ccccc1
Result: -0.055 h (inactive)

* * *

- METHOD: viability loss with induced miR-34 in A549 – imaging, A549 dox-inducible miR-34, nuclei and caspase counts, primary screen (AID 1347080)
- RECORDED_CONDITIONS: A549 miR-34 inducible, Hoechst nuclei count, 48 h; stronger effect = lower value; cell number ratio, induced over uninduced
QUANTITY_NAME: fold change
Keep it simple and answer with nothing but the number.

{"columns": ["COMPOUND", "QUANTITATIVE_READOUT"],
 "data": [
  ["Nc1cc(Cl)c(NC2=NCCN2)c(Cl)c1", 1.02],
  ["COc1ccc(CN2CCN(c3cc(C)nc(N)n3)CC2=O)cc1", 0.879]
]}

Query: Form field: reported fold change of CCCCCCCCCC[Si](C)(C)CCC(=O)NC(Cc1ccc(C)cc1)c1ccccc1 (stereo not drawn)
Result: 1.02

Query: Form field: reported fold change of C=C/C(C)=C/[C@@]1(C)SC(=O)C(C)=C1O
Result: 1.05

Query: Form field: reported fold change of C=CCC1C=C(C)CC(C)CC(OC)C2O[C@@](O)(C(=O)C(=O)N3CCCC[C@H]3C(=O)OC(C(C)=CC3CCC(O)C(OC)C3)C(C)C(O)CC1=O)C(C)CC2OC (stereo partly drawn)
Result: 0.917

* * *

- METHOD: MELAS cybrid and Rieske KO viability enhancers – cell-based, MELAS cybrids, Rieske KO mouse fibroblasts, CellTiter-Glo, primary screen (AID 1508586);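 also: z relative to plate mean and SD of compound and empty wells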
- RECORDED_CONDITIONS: Rieske KO mouse fibroblast survival, low glucose, CellTiter-Glo 72 h
QUANTITY_NAME: z-score
Keep it simple and answer with nothing but the number.

# count of solved cases: 10
{"columns": ["COMPOUND", "QUANTITY_NAME", "QUANTITATIVE_READOUT"],
 "data": [
  ["O=C1C(Cl)=C(N2CCOCC2)C(=O)N1c1ccc(Cl)c(Cl)c1", "z-score", -0.893],
  ["O=C(O)C1=CC(O)C(O)C(O)C1 (stereo unspecified)", "z-score", 0.667],
  ["Cc1nc(CN(C)C2CCc3c(c(C(=O)N(C)C)nn3CC3CCCCC3)C2)cs1 (stereo unspecified)", "z-score", -0.141],
  ["CCCn1nc(C(=O)N2CCCCC2)c2c1CCC(NCc1cccnc1)C2 (stereo unspecified)", "z-score", -0.185],
  ["Cc1nn(C)c(C)c1-c1ccnc(N(C)Cc2cc(-c3ccccn3)no2)n1", "z-score", 0.716],
  ["CC(C)[C@@H]1NC(=O)[C@@H]2C[C@H](NC(=O)c3cc(C(C)(C)C)nn3C)CN2C1=O", "z-score", 0.0296],
  ["C[C@@H]1C(=O)O[C@H]2CC34[C@H]5C[C@@H](C(C)(C)C)C36C(OC(=O)[C@H]6O)O[C@@]4(C(=O)O5)[C@]21O (stereo partly specified)", "z-score", 0.0455],
  ["C[C@@]12C(=O)N(c3ccc(C(=O)Nc4cccc5cccnc45)cc3)C(=O)[C@@H]1C1C=CC2C1 (stereo partly specified)", "z-score", -0.119],
  ["COc1ccc(-c2oc3c(CC=C(C)C)c(OC4OC(CO)C(O)C(O)C4O)cc(O)c3c(=O)c2OC2OC(C)C(O)C(O)C2O)cc1 (stereo unspecified)", "z-score", 0.107],
  ["N.N.O=C(O)CO.[Pt]", "z-score", -1.2]
]}

Next compound, z-score to be filled in.
Query: Form field: reported z-score of COC(=O)CCN1CC(OCc2ccncc2)CN(C(=O)Cc2c(F)cccc2Cl)CC1=O (stereo unspecified)
Result: 0.103
